These entries and their values trace back to PubChem BioAssay.

Listing of recorded inhibition by entry.
Target desc: L-lactate dehydrogenase (Plasmodium falciparum (isolate CDC / Honduras)) (UniProt Q27743)
Sequence (Q27743 whole entry, looked up): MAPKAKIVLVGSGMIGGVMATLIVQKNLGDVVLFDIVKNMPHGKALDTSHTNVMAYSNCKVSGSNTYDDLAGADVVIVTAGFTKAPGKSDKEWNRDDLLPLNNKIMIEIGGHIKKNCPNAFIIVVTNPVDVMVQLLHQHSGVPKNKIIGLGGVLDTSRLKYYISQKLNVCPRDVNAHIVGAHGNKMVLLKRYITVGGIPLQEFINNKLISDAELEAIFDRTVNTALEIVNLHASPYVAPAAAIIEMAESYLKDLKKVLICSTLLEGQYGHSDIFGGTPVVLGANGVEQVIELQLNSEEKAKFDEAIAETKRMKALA
Experimental details: PfLDH activity inhibition – cell lysate, 3D7 strain, counter-screen for P. falciparum growth inhibition project (AID 2304);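 also: 0% = vehicle and 100% = reference inhibitor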
Test conditions: P. falciparum 3D7 crude extract, LDH APAD/NBT absorbance; at 2 µM; stronger effect = higher value
Give your result in % as a bare value.

Worked cases, inhibition given:
COc1ccc(-c2ccc(NC(=O)c3ccc(C#N)cc3)cc2)cc1CN(C)CCO ... 9
O=C(NCCSCc1c(F)cccc1Cl)c1cnc2c(c1)nc(-c1cnc(-c3ccccc3)[nH]1)n2CCc1cnc[nH]1 ... 0
CCCCCCN1CCCN(Cc2ccc(C(=O)Nc3cccc(CC)c3)cc2)CC1 ... -3
O=C(Nc1ccc(-c2ccccc2)cc1)Nc1ccc2c(c1)CCNCC2 ... -2
COc1ccc2ncc(F)c(NC(=O)C3CCC(NCc4cc5cc(F)cc(F)c5[nH]4)CC3)c2n1 (centres undefined) ... 2
CN1CCCC(CN2CCN(Cc3ccc(-c4ccc(-c5nc6ccc(F)cc6[nH]5)cc4)cc3)CC2)C1 (centres undefined) ... -1
CC(=O)Nc1ccc(C(=O)Nc2cccc(-c3ccc(-c4nc5c(C)cccc5[nH]4)cc3)c2)cn1 ... 4
COc1ccccc1NC(=O)Nc1cccc(-c2cccc(-c3nc4c(C)cccc4[nH]3)c2)c1 ... -1

Task: Which inhibition value is on record for `Nc1c2c(nc3ccc(C(=O)Nc4ccccc4)cc13)CCCC2` ?
Output: -3

---

Experimental details: antimalarial activity against Dd2 strain (AID 2302);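 also: 0% = DMSO untreated growth and 100% = chloroquine plus artemisinin killed control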
Test conditions: P. falciparum Dd2 in RBCs, LDH growth readout, 72 h; at 2 µM
Calls of active or inactive are those of the source.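 The calls were made as follows: active = growth inhibition above 50% at the single 2 µM test dose, taken to imply half-maximal potency below 2 µM; inactive = the rest.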
// one of 1 = active, 0 = inactive, no free text

Observe how each entry below is paired with its result.
COc1ccc(Nc2nccc(-c3ccc4c(-c5ccsc5)cnc(N)c4c3)n2)cc1 ... 1
COc1ccccc1C(=O)Nc1ccc(Nc2nc(C)cc(N3CCOCC3)n2)cc1 ... 0
CS(=O)(=O)NCCCNCc1cccc(-c2cccc(-c3nc4ccc(C(F)(F)F)cc4[nH]3)c2)c1 ... 1
Fc1cccc(Cl)c1-c1nc(NCCC(c2ccccc2)c2ccccc2)no1 ... 1

Shift focus to the following entry.
Task: What call does the record list for c1csc(-c2nc(NCC3CCCO3)ncc2-c2ccsc2)n1 (stereo not given) ?
Output: 1

---

Experimental details: inhibition of 3D7 malaria parasite growth – strain 3D7 (AID 2306);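 also: 0% = DMSO wells and 100% = chloroquine plus artemisinin control wells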
Test conditions: P. falciparum 3D7 erythrocytic growth, LDH absorbance, 72 h; at 2 µM; stronger effect = higher value
Value kind: growth inhibition (%)
Give your result in % as a bare value.

Worked cases, growth inhibition given:
CC(Nc1nncc(-c2cccc(F)c2)n1)c1ccc(F)cc1 (centres undefined) ... 95
N=c1c2c(n(Cc3cccc(Cl)c3)c3c1CCC3)CCCC2 ... 97
COCCN1CCC(N(Cc2ccc(-c3ccc(C(F)(F)F)cc3)cc2)C(=O)Cn2c(CCc3cccc(F)c3F)cc(=O)c3c2CCC3)CC1 ... 85

Task: Which growth inhibition value is on record for `Cc1ccccc1CNc1ccc2nc(N)nc(N)c2c1` ?
Output: 101

Task: Which growth inhibition value is on record for `COc1ccc(F)cc1-c1ccc(C(=O)N2CCCN(c3ccc(C(F)(F)F)cn3)CC2)cc1` ?
Output: 101

Task: Which growth inhibition value is on record for Cc1onc(-c2ccccc2)c1-c1nc(NC2CCCC(C)C2)no1 (centres undefined) ?
Output: 101

Task: Which growth inhibition value is on record for Cc1ccccc1C1CCN(C2CCC(NC(=O)/C=C/c3ccc(OC(F)(F)F)cc3)CC2)CC1 (centres undefined) ?
Output: 100

Task: Which growth inhibition value is on record for `CN1CCC(N(Cc2ccc(-c3ccc(C(F)(F)F)cc3)cc2)C(=O)Cn2c(SCc3cccc(F)c3F)cc(=O)c3c2CCC3)CC1` ?
Output: 89

Task: Which growth inhibition value is on record for `Cc1cccc2c(CON3C(N)=NC(N)=NC3(C)C)cccc12` ?
Output: 94

Task: Which growth inhibition value is on record for `CCOC(=O)c1[nH]c(-c2ccc(-c3ccccc3)cc2)nc1N` ?
Output: 98

Task: Which growth inhibition value is on record for CC(CC(=O)NCC1(c2ccc(F)cc2Cl)CCOCC1)C(=O)c1ccc(Cl)cc1 (centres undefined) ?
Output: 99

Task: Which growth inhibition value is on record for `COc1ccc(Cn2ccc3c4c(N)nc(N)nc4ccc32)cc1` ?
Output: 101

---

Experimental details: inhibition of 3D7 malaria parasite growth – strain 3D7 (AID 2306);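 also: 0% = DMSO wells and 100% = chloroquine plus artemisinin control wells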
Test conditions: P. falciparum 3D7 erythrocytic growth, LDH absorbance, 72 h; at 2 µM; stronger effect = higher value
Calls of active or inactive are those of the source. How the calls were made is not given here.
Value kind: growth inhibition

Worked cases, growth inhibition given:
Cc1cc(OCCCN2CCCCC2)ccc1NC(=O)COc1ccc(Cl)cc1C(=O)c1cc(Cl)cc(C#N)c1 ... 93% (active)
CCOc1ccc2c(NN=Cc3c4ccccc4cc4ccccc34)cc(C)nc2c1 ... 90% (active)
Cc1ccc([C@@H]2CC(=O)CC(c3ccccn3)[C@H]2[N+](=O)[O-])cc1 (some centres undefined) ... 97% (active)
Cc1ccc(-n2cc(CNCCc3ncc(C)[nH]3)c(-c3ccc(F)cc3)n2)cc1 ... 86% (active)

Let's switch to this molecule now.
Task: Which growth inhibition value is on record for `CN1CC[C@@H](Oc2cc(NC(=O)Nc3ccc(Cl)c(C(F)(F)F)c3)ccc2Cl)C1` ?
Output: 100% (active)

---

Target desc: Plasmodium falciparum protein kinase 6 (PK6, PF3D7_1337100)
Experimental details: PfPK6 kinase inhibitors, biochemical, TCAMS library (AID 1159586)
Test conditions: recombinant PfPK6, Kinase-Glo ATP depletion luminescence
Results with a measured potency or affinity are listed apart. The source made the active and inactive calls. The rule behind the calls is not given here.
Value kind: outcome

CCNc1cc(C(=O)N[C@@H](Cc2ccccc2)[C@H](O)CN[C@@H]2CCc3ccccc32)cc(N2CCCCS2(=O)=O)c1 ... inactive
CC(C)(C)c1cc(C(=O)Nc2ccc(C(=N)N)cc2)c(O)c(C(C)(C)C)c1 ... inactive
Cc1cc(Cl)ccc1N(Cc1ccccc1)c1ccnc(Cl)n1 ... inactive
COc1ccc2nccc([C@@H](O)CN3CCC(NC(=O)C(c4cc5ccccc5o4)N4CCN(c5ccc(F)cc5)CC4)CC3)c2c1 (stereo not given in full) ... inactive
Cc1cccc2[nH]c(-c3ccc(-c4ccc(CNCc5cccc(N)c5)cc4)cc3)nc12 ... inactive
CCCCCCN1CCC(NCc2ccc(Cl)cc2)CC1 ... inactive
C#CCCOc1ccc2ccccc2c1CNCCCCCCNCc1c(OCCC#C)ccc2ccccc12 ... inactive
N#Cc1ccc(NC(=O)N2CCCN(CCCCCNC(=O)/C=C/c3ccc(Cl)c(Cl)c3)CC2)cc1 ... inactive

Task: Which outcome value is on record for `Cc1ccc(O)cc1Nc1ccnc2ccc(-c3cccc(CNCCN(C)C)c3)cc12` ?
Output: inactive

---

Target desc: L-lactate dehydrogenase (Plasmodium falciparum (isolate CDC / Honduras)) (UniProt Q27743)
Experimental details: PfLDH activity inhibition – cell lysate, 3D7 strain, counter-screen for P. falciparum growth inhibition project (AID 2304);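 also: 0% = vehicle and 100% = reference inhibitor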
Test conditions: P. falciparum 3D7 crude extract, LDH APAD/NBT absorbance; at 2 µM; stronger effect = higher value
Listing of recorded inhibition by entry.
Give your result in % as a bare value.

CC(C)[C@H]1CC[C@H](C)C[C@@H]1OC(=O)N[C@@H](Cc1ccc(O)cc1)C(=O)NC1CCN(Cc2ccc(OCCCN(C)C)cc2)C1 (some centres undefined) ... 4
Cc1ccc(NC(=O)c2cn(-c3ccccc3)nc2-c2ccc(F)cc2)cc1[N+](=O)[O-] ... 8
CN(C)c1ccnc2ccc(NC(=O)Nc3ccnc4ccccc34)cc12 ... 3

Task: Which inhibition value is on record for `O=C(Nc1ccc(-c2ccccc2)cc1)Nc1cccc(Cn2nc(Cl)c(N3CCCNCC3)cc2=O)c1` ?
Output: -2

---

Target desc: L-lactate dehydrogenase (Plasmodium falciparum (isolate CDC / Honduras)) (UniProt Q27743)
Experimental details: PfLDH activity inhibition – cell lysate, 3D7 strain, counter-screen for P. falciparum growth inhibition project (AID 2304);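 also: 0% = vehicle and 100% = reference inhibitor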
Test conditions: P. falciparum 3D7 crude extract, LDH APAD/NBT absorbance; at 2 µM; stronger effect = higher value
Listing of recorded inhibition by entry.
Give your result in % as a bare value.

Worked cases, inhibition given:
FC(F)(F)c1ccc2nc(-c3ccc(-c4cccc(CNCc5ccccc5)c4)cc3)[nH]c2c1 ... -5
COCC(C)n1c(C)cc(C(=O)CSc2nnc(Nc3ccccc3)s2)c1C (centres undefined) ... -6
CC(=O)c1ccc(N2CCN(C(=O)Nc3ccc(Cl)cc3)CC2)cc1 ... 0

Task: Which inhibition value is on record for `O=C(Nc1ccc(Cl)cc1Cl)N[C@H]1CCN(CCCCCNC(=O)[C@@H]2C[C@H]2c2ccc(Cl)c(Cl)c2)C1` ?
Output: 2

Task: Which inhibition value is on record for N#Cc1cccc(NC(=O)C2=C(CCc3ccc4c(c3)OCO4)NC(=O)NC2c2cccc(C#N)c2)c1 (centres undefined) ?
Output: -1
